Test system: RXF 393
method: NCI tumour cell line growth inhibition, 48 h
Activity calls are given as the source filed them. No stated cut-off is given here; in the data, active = GI50 up to about 1.1 µM and inactive = higher.
Choose the fitting class; nothing outside class 1 = active, class 0 = inactive is accepted.

Look over these answered cases.
1. O=S(=O)(/N=C(\NO)Nc1ccc(Cl)cc1)C1CC=C(c2ccon2)S1 (stereo not drawn) :: class 0
2. ClC(Cl)(Cl)C1CCOC1n1nc2ccccc2n1 (stereo not drawn) :: class 0
3. OCC(Cn1cncn1)(c1ccc(F)cc1F)n1cncn1 (stereo not drawn) :: class 0
4. Cc1cc(O)c(C(C)C)cc1SC#N :: class 0
5. COC1=C(C)C(=O)c2c(cc3c(c2O)C(C)(CCC=C(C)C)C(C)O3)C1=O (stereo not drawn) :: class 0
6. CC(C)c1c2[nH]c3ccccc3c2c(C(C)C)c2[nH]c3ccccc3c12 :: class 0
7. C=C(C)C(=O)O[C@@H]1C[C@@]2(C)O[C@@H]2C[C@H](O)/C(C)=C/[C@H]2OC(=O)C(=C)[C@@H]21 :: class 0
8. C=C(C)C(CC=C(C)C)Cc1c(O)cc(OC)c2c1OC(c1ccc(O)cc1O)C(O)C2=O (stereo not drawn) :: class 0
9. O=C(O)c1ccc(SSc2ccc(C(=O)O)cn2)nc1 :: class 0
10. NC1NCCC(=O)N1CCc1c[nH]c2ccccc12 (stereo not drawn) :: class 0

Turning now to a further record.
Query block: How was `CCOC(=O)/C(C#N)=C(/NS(=O)(=O)c1cc(C)c(Cl)cc1[S-])[n+]1ccc(N(C)C)cc1` classified in this test?
Result block: class 0

Data credit: ChEMBL document CHEMBL1201862
